The measurements presented in this section are drawn from ChEMBL document CHEMBL1201862.

System: DMS-273
assay.comment: NCI tumour cell line growth inhibition, 48 h
Active and inactive are the calls of the source. Rule as the data show it: active = GI50 up to about 1.1 µM and inactive = higher.
Overview of recorded GI50 for various compounds

Worked examples, 2 compounds total:
Q. Give recorded GI50 with DMS-273 for the following compound: `COC(=O)CN1CCS/C1=N/C#N`
A. > 100 µM (inactive)

Q. Give recorded GI50 with DMS-273 for the following compound: `CN1CCN(c2nc(N)c(Br)c(Cl)n2)CC1`
A. > 100 µM (inactive)

Further cases:
Q. Give recorded GI50 with DMS-273 for the following compound: `COc1ccc2c(c1)Cc1c-2[nH]c2cc3c(cc2c1=O)OCO3`
A. 7.67 µM (inactive)

Q. Give recorded GI50 with DMS-273 for the following compound: O=C1C=C2CCCC2C(C(=O)O)(C(=O)O)C1 (stereo unspecified)
A. > 100 µM (inactive)

Q. Give recorded GI50 with DMS-273 for the following compound: Nc1nc(=O)c2c([nH]1)NCC(CNc1ccc(C(=O)N[C@@H](CCC(=O)O)C(=O)O)cc1)N2C=O (stereo partly specified) [LEUCOVORIN CALCIUM]
A. > 125 µM (inactive)

Q. Give recorded GI50 with DMS-273 for the following compound: `Cc1ccc(NC(=O)CCc2cc(C(C)(C)C)nc(S)n2)cc1C`
A. > 100 µM (inactive)

###

Test system: 786-0
assay.comment: NCI tumour cell line growth inhibition, 48 h
Calls of active or inactive are those of the source. Rule as the data show it: active = GI50 up to about 1.1 µM and inactive = higher.
value.kind: GI50

Worked examples, 10 compounds total:
Q. Please report the recorded GI50 for `C=C(C(N)=O)c1ccc([N+](=O)[O-])o1` .
A. 11.2 µM (inactive)

Q. Please report the recorded GI50 for COC(=O)C1=C(C(=O)OC)C23CC1C1C(C(=O)OC)=C(C(=O)OC)C12C1C=CC3C2C(=O)OC(=O)C21 (stereo unspecified) .
A. 94.2 µM (inactive)

Q. Please report the recorded GI50 for `ClCCCN1CCN(CCCl)CC1` .
A. 49.7 µM (inactive)

Q. Please report the recorded GI50 for COc1cc(NC(C)CCCN)c2nccc(C)c2c1 (stereo unspecified) .
A. 19 µM (inactive)

Q. Please report the recorded GI50 for CC(C)(C)C1CCC2c3c([nH]c4ccccc34)C3C(=O)N(c4ccc5c(c4)C(=O)c4ccccc4C5=O)C(=O)C3C2C1 (stereo unspecified) .
A. > 100 µM (inactive)

Q. Please report the recorded GI50 for CN1C(=O)N/C(=C\c2ccc(S(=O)(=O)N/N=C\C(O)C(O)C(O)CO)cc2)C1=O (stereo unspecified) .
A. > 100 µM (inactive)

Q. Please report the recorded GI50 for `Cc1nnc2sc(-c3ccc(-c4ccccc4Cl)o3)nn12` .
A. 26.9 µM (inactive)

Q. Please report the recorded GI50 for `O=C1C=C(O)C(=Cc2c(O)cc(O)cc2O)C(O)=C1` .
A. > 100 µM (inactive)

Q. Please report the recorded GI50 for C/C=C/C(C#N)(Cc1ccccc1)OP1(=O)OC(c2ccccc2)C(C)N1C (stereo unspecified) .
A. > 100 µM (inactive)

Q. Please report the recorded GI50 for CCCCCCCCCCCCCCCCCCNc1ccn(C2OC(COP(=O)(O)OCC3OC(n4cc(F)c(NCCCCCCCCCCCCCCCCCC)nc4=O)CC3O)C(O)C2O)c(=O)n1 (stereo unspecified) .
A. > 100 µM (inactive)

Could you now consider this next compound?
Q. Please report the recorded GI50 for `O=[N+]([O-])/C(C(Cl)=C(Cl)Cl)=C1\NCCS1` .
A. 36.1 µM (inactive)

###

System: MOLT-4
assay.comment: NCI tumour cell line growth inhibition, 48 h
Active and inactive are the calls of the source. No stated cut-off is given here; in the data, active = GI50 up to about 1.1 µM and inactive = higher.
Please state which outcome applies, choosing from t = active, f = inactive

Would you please look over these solved cases?
Q. Could you please tell me the result logged for `Cn1c2ccccc2c2cc(-c3ccccc3)c3c(c21)C(=O)C=CC3=O` in this assay?
A. f

Q. Could you please tell me the result logged for CC(SC(=S)Nc1cccc(F)c1)C(=O)O (stereo not drawn) in this assay?
A. f

Q. Could you please tell me the result logged for CC[C@@]1(O)C(=O)OCc2c1cc1n(c2=O)Cc2c-1nc1ccccc1c2/C=N\NC(=O)C1CCCN1 (stereo partly drawn) in this assay?
A. t

Further cases:
Q. Could you please tell me the result logged for C=CC1CN(C(=O)OCC)N(C(=O)OCC)C1CCc1ccccc1 (stereo not drawn) in this assay?
A. f

Q. Could you please tell me the result logged for C/C=C(/C)C(=O)O[C@H]1[C@H](O)CC(c2ccc3c(c2O)C(=O)C2=C(O)C4(OC)C(=O)C(C(N)=O)=C(O)[C@H](CC(=O)c5ccccc5O)C4CC2[C@@]3(C)OC)O[C@@H]1C (stereo partly drawn) in this assay?
A. t

###

Tested on: UACC-257
assay.comment: NCI tumour cell line growth inhibition, 48 h
Activity calls are given as the source filed them. Cut-off read from the data, not from the text of the source: active = GI50 up to about 1.1 µM and inactive = higher.
Please state which outcome applies, choosing from t for active, f for inactive

Would you please look over these solved cases?
Q. Could you please tell me the result logged for `Cc1c(-c2ccccc2)oc(=O)c2ccccc12` in this assay?
A. f

Q. Could you please tell me the result logged for `COc1ccc(C(=O)Nc2ccccc2C#N)cc1` in this assay?
A. f

Q. Could you please tell me the result logged for `O=C1NC2=C(CCCCC/C2=N\O)C12CCCCCC2` in this assay?
A. f

Q. Could you please tell me the result logged for COc1ccc2c(c1)CCN1CCCc3ccc(OC)cc3C21 (centres undefined) in this assay?
A. f

Q. Could you please tell me the result logged for COc1ccc(SC(C)(SC)c2ccccn2)c(OC)n1 (centres undefined) in this assay?
A. f

Further cases:
Q. Could you please tell me the result logged for `CC(C)(N)CO[C@H]1C[C@H]2CC[C@@]1(C)C2(C)C` in this assay?
A. f

Q. Could you please tell me the result logged for `C/C(=N\NC(=S)NC1CCCC1)c1ccccn1` in this assay?
A. t

Q. Could you please tell me the result logged for CCOC(=O)C(OCC1CC=CCC1)Sc1ccccc1 (centres undefined) in this assay?
A. f

###

Overview of recorded GI50 for various molecules
Test system: CAKI-1
assay.comment: NCI tumour cell line growth inhibition, 48 h
Activity calls are given as the source filed them. Rule as the data show it: active = GI50 up to about 1.1 µM and inactive = higher.

Q. Give recorded GI50 with CAKI-1 for the following molecule: Cc1cc(C)c2c(=O)n(CC(O)CN3CCN(CCOCCO)CC3)sc2n1 (stereo not given)
A. > 100 µM (inactive)

Q. Give recorded GI50 with CAKI-1 for the following molecule: `CN(C)/C=N/S(=O)(=O)c1nn2c(C=O)c(-c3ccc(-c4ccccc4)cc3)nc2s1`
A. 1.31 µM (inactive)

Q. Give recorded GI50 with CAKI-1 for the following molecule: `COc1ccc(/C=C2\CN(C)C/C(=C\c3ccc(OC)cc3)C2=O)cc1`
A. > 100 µM (inactive)

Q. Give recorded GI50 with CAKI-1 for the following molecule: `COC1=CC(=O)C2=C(C1=O)[C@H]1CC[C@]3(C)C(=O)CC[C@H]3[C@@H]1CC2`
A. 25.8 µM (inactive)

Q. Give recorded GI50 with CAKI-1 for the following molecule: COC(=O)C1=C(C(=O)Nc2cccnc2Cl)N(c2ccc(OC)cc2[N+](=O)[O-])C(c2ccc(C)cc2)=CC1c1ccc(OC)cc1OC (stereo not given)
A. 36.9 µM (inactive)

Q. Give recorded GI50 with CAKI-1 for the following molecule: `CCCn1c(SC)nc(COC(=O)NC)c1COC(=O)NC`
A. > 100 µM (inactive)

Q. Give recorded GI50 with CAKI-1 for the following molecule: `O=C(NCP(=O)(Oc1ccccc1)Oc1ccccc1)OCc1ccccc1`
A. > 100 µM (inactive)

Q. Give recorded GI50 with CAKI-1 for the following molecule: `CCOC(=O)c1nc2cc(F)c(F)cc2nc1NCc1cc(OC)c(OC)c(OC)c1`
A. > 100 µM (inactive)

Q. Give recorded GI50 with CAKI-1 for the following molecule: O=C(O)c1ccccc1CN1CCCC(C(=O)O)C1 (stereo not given)
A. > 100 µM (inactive)

Q. Give recorded GI50 with CAKI-1 for the following molecule: CN(CCN1CCCC1)C1CCc2cc(Cl)c(Cl)cc2C1 (stereo not given)
A. 17.3 µM (inactive)

###

Test system: SF-268
assay.comment: NCI tumour cell line growth inhibition, 48 h
Active and inactive are the calls of the source. Cut-off read from the data, not from the text of the source: active = GI50 up to about 1.1 µM and inactive = higher.
Please state which outcome applies, choosing from Yes for active, No for inactive

Would you please look over these solved cases?
Q. Could you please tell me the result logged for COc1ccc(SC(C)(SC)c2ccccn2)c(OC)n1 (centres undefined) in this assay?
A. No

Q. Could you please tell me the result logged for COC(c1ccsc1)C(C#N)(C#N)/N=C/c1ccsc1 (centres undefined) in this assay?
A. No

Q. Could you please tell me the result logged for C=CCCCCCCCCCOC1C=CC(OC(C)=O)C(COC(C)=O)O1 (centres undefined) in this assay?
A. No

Q. Could you please tell me the result logged for `O=C(Nc1nc2ncn(CCO)c2c(=S)[nH]1)c1ccccc1` in this assay?
A. No

Q. Could you please tell me the result logged for `Nc1nc(=S)n(-c2ccc(Cl)cc2)c2nc3ccccc3cc12` in this assay?
A. No

Further cases:
Q. Could you please tell me the result logged for `COC1=Nc2ccccc2S(=O)(=O)C=C1` in this assay?
A. No

Q. Could you please tell me the result logged for `CCCCCCCCCCCC(=O)CC(=O)c1c(O)cccc1O` in this assay?
A. No

Q. Could you please tell me the result logged for CCCC(=O)C(CC)/C(CCC(=O)N(Cc1ccccc1)Cc1ccccc1)=N/NC(=O)C[N+](C)(C)C (centres undefined) in this assay?
A. No

Q. Could you please tell me the result logged for `NS(=O)(=O)c1nc(S(=O)(=O)O)c2[nH]cnc2n1` in this assay?
A. No

Q. Could you please tell me the result logged for Nc1nc(=O)c2c([nH]1)NCC(CNc1ccc(C(=O)N[C@@H](CCC(=O)O)C(=O)O)cc1)N2C=O (some centres undefined) [LEUCOVORIN CALCIUM] in this assay?
A. No

Q. Could you please tell me the result logged for `O=c1c2ccccc2nc(Nc2cccc(Cl)c2)n1/N=C/C=C/c1ccccc1` in this assay?
A. No

Q. Could you please tell me the result logged for C/C=C/C(O)P(=O)(OC)OC (centres undefined) in this assay?
A. Yes
